Provenance of the data: ChEMBL document CHEMBL1142968

# Species: Homo sapiens
# assay.overview: Binding affinity to HLA-A2 in TAP-deficient HLA-A2+T2 cells assessed as fluorescence intensity relative to ELA
*1 amine or outer side, *2 acyl side, *3 side chain or, on linkers, in order; H or OH if unused. Where a SMILES comes first, the peptide text is derived from it. [ ]: non-standard residue; d: D form. X9 = O=C(CN(CCN[*:1])Cc1ccnc2ccccc12)[*:2]; X3 = O=C(CN(CCN[*:1])Cc1ccccc1)[*:2]; 3Amb = NCc1cccc(C(=O)O)c1; βAla = NCCC(=O)O
Label key: T means Ratio under 1; F means Ratio of 1 or more.

CC[C@H](C)[C@H](NC(=O)CNC(=O)CN(CCNC(=O)[C@H](C)NC(=O)[C@H](CC(C)C)NC(=O)CCN)Cc1ccccc1)C(=O)N[C@@H](CC(C)C)C(=O)N[C@H](C(=O)N[C@H](C(=O)O)C(C)C)[C@@H](C)O | T
CC(C)C[C@H](NC(=O)CCN)C(=O)N[C@@H](C)C(=O)NCCN(CC(=O)NCc1cccc(C(=O)N[C@@H](CC(C)C)C(=O)N[C@H](C(=O)N[C@H](C(=O)O)C(C)C)[C@@H](C)O)c1)Cc1ccccc1 (H-[βAla]LA[X3][3Amb]LTV-OH) | T
CC[C@H](C)[C@H](NCCNC(=O)[C@H](Cc1ccc(O)cc1)NCCNC(=O)[C@H](C)NC(=O)[C@H](CC(C)C)NC(=O)[C@@H](N)CCC(=O)O)C(=O)N[C@@H](CC(C)C)C(=O)N[C@H](C(=O)N[C@H](C(=O)O)C(C)C)[C@@H](C)O | F

// query Input CC(C)C[C@H](NC(=O)CCN)C(=O)N[C@@H](C)C(=O)NCCN(CC(=O)NCc1cccc(C(=O)N[C@@H](CC(C)C)C(=O)N[C@H](C(=O)N[C@H](C(=O)O)C(C)C)[C@@H](C)O)c1)Cc1ccnc2ccccc12 (H-[βAla]LA[X9][3Amb]LTV-OH) ; condition: Ratio strictly below 1. Does it hold?
// result F

// query Please determine if CC[C@H](C)[C@H](NC(=O)CNC(=O)CN(CCNC(=O)[C@H](C)NC(=O)[C@H](CC(C)C)NC(=O)[C@@H](N)CCC(=O)O)Cc1cccc2ccccc12)C(=O)N[C@@H](CC(C)C)C(=O)N[C@H](C(=O)N[C@H](C(=O)O)C(C)C)[C@@H](C)O is below 1 in terms of Ratio.
// result T

###

# Species on record: Homo sapiens
# assay.overview: Binding affinity to HLA-A2 in TAP-deficient HLA-A2+T2 cells assessed as fluorescence intensity relative to ELA
*1 amine or outer side, *2 acyl side, *3 side chain or, on linkers, in order; H or OH if unused. Where a SMILES comes first, the peptide text is derived from it. Side-chain parts run from the residue outwards. [ ]: non-standard residue; d: D form. The star is where a group is joined. X8 = O=C(CN(CCN[*:1])Cc1ccc([N+](=O)[O-])cc1)[*:2]; N(2-Aminoethyl)Gly = O=C(CN(CCN[*:3])[*:1])[*:2]; X7 = O=C(CN(CCN[*:1])CCc1c[nH]c2ccccc12)[*:2]; X6 = O=C(CN(CCN[*:1])CCc1ccccc1)[*:2]; 3Amb = NCc1cccc(C(=O)O)c1; PhAc = O=C(Cc1ccccc1)*; βAla = NCCC(=O)O
measurement.name: Ratio
Please reply with the value in numeric form only.

Please review the entries below; each comes with its answer.
CC(C)C[C@H](NC(=O)CCN)C(=O)N[C@@H](C)C(=O)NCCN(CC(=O)NCc1cccc(C(=O)N[C@@H](CC(C)C)C(=O)N[C@H](C(=O)N[C@H](C(=O)O)C(C)C)[C@@H](C)O)c1)C(=O)Cc1ccccc1 (PhAc-[N(2-Aminoethyl)Gly]([Ala-Leu-βAla])[3Amb]LTV-OH) | 0.54
CC(C)C[C@H](NC(=O)CCN)C(=O)N[C@@H](C)C(=O)NCCN(CCc1c[nH]c2ccccc12)CC(=O)NCc1cccc(C(=O)N[C@@H](CC(C)C)C(=O)N[C@H](C(=O)N[C@H](C(=O)O)C(C)C)[C@@H](C)O)c1 (H-[βAla]LA[X7][3Amb]LTV-OH) | 0.86
CC[C@H](C)[C@H](NC(=O)CNC(=O)CN(CCNC(=O)[C@H](C)NC(=O)[C@H](CC(C)C)NC(=O)[C@@H](N)CCC(=O)O)Cc1ccnc2ccccc12)C(=O)N[C@@H](CC(C)C)C(=O)N[C@H](C(=O)N[C@H](C(=O)O)C(C)C)[C@@H](C)O | 0.79
CC[C@H](C)[C@H](NC(=O)CNC(=O)CN(CCNC(=O)[C@H](C)NC(=O)[C@H](CC(C)C)NC(=O)[C@@H](N)CCC(=O)O)Cc1ccccc1)C(=O)N[C@@H](CC(C)C)C(=O)N[C@H](C(=O)N[C@H](C(=O)O)C(C)C)[C@@H](C)O | 0.9
CC(C)C[C@H](NC(=O)CCN)C(=O)N[C@@H](C)C(=O)NCCN(CCc1ccccc1)CC(=O)NCc1cccc(C(=O)N[C@@H](CC(C)C)C(=O)N[C@H](C(=O)N[C@H](C(=O)O)C(C)C)[C@@H](C)O)c1 (H-[βAla]LA[X6][3Amb]LTV-OH) | 0.25
CC(C)C[C@H](NC(=O)CCN)C(=O)N[C@@H](C)C(=O)NCCN(CC(=O)NCc1cccc(C(=O)N[C@@H](CC(C)C)C(=O)N[C@H](C(=O)N[C@H](C(=O)O)C(C)C)[C@@H](C)O)c1)Cc1ccc([N+](=O)[O-])cc1 (H-[βAla]LA[X8][3Amb]LTV-OH) | 0.86
CC[C@H](C)[C@H](NC(=O)CNC(=O)CN(CCNC(=O)[C@H](C)NC(=O)[C@H](CC(C)C)NC(=O)[C@@H](N)CCC(=O)O)Cc1ccc(O)cc1)C(=O)N[C@@H](CC(C)C)C(=O)N[C@H](C(=O)N[C@H](C(=O)O)C(C)C)[C@@H](C)O | 0.83

// next item, Ratio requested
Kindly note the recorded Ratio for CC[C@H](C)[C@H](NC(=O)CNC(=O)CN(CCNC(=O)[C@H](C)NC(=O)[C@H](CC(C)C)NC(=O)[C@@H](N)CCC(=O)O)Cc1ccc([N+](=O)[O-])cc1)C(=O)N[C@@H](CC(C)C)C(=O)N[C@H](C(=O)N[C@H](C(=O)O)C(C)C)[C@@H](C)O , which is 0.85
